- System: P12-Ichikawa
- Assay: cell viability relative to DMSO control; higher = less cytotoxic
- Particulars: RPMI 5 mM glucose + 10% dialyzed FBS; 48 h; 0.00234 µM
Recorded endpoint: cell viability (%)

- OC1=C(O)C2=C(\C=C/C(=O)O2)C=C1: 109
- Cc1c(CN2CCN(C(=O)[C@H](C)O)CC2)sc2c(N3CCOCC3)nc(-c3cnc(N)nc3)nc12: 94.8
- COC(=O)Nc1nc2cc(C(=O)c3cccs3)ccc2[nH]1: 114
- COC1=CC=CC2=C1C(=NC(=N2)C3=CC=CS3)NN4C(=O)\C=C(C)/C4=O: 90.7

----------
- System: P12-Ichikawa
- Assay: cell viability relative to DMSO control; higher = less cytotoxic
- Particulars: RPMI 5 mM glucose + 10% dialyzed FBS; 48 h; 46.1 µM
Recorded cell viability for the following compounds
Recorded endpoint: cell viability (%)

- CN(CC#C)C/C1=C/C2=CC=CC=C2OC3=CC=CC=C13: 78.4
- COc1ccc(Cc2ccc(NC(N)=O)cc2)cc1-c1cccc(Cl)c1: 113
- Nc1ccccc1NC(=O)c1ccc(CNC(=O)OCc2cccnc2)cc1: 3.96
- COc1cc2c(cc1-c1c(C)noc1C)ncc1[nH]c(=O)n([C@H](C)c3ccccn3)c12: 22.4
- CCCc1nc(C(C)(C)O)c(C(=O)O)n1Cc1ccc(-c2ccccc2-c2nn[nH]n2)cc1: 135
- CC1(C)Cc2c(-c3ccccc3)c(-c3ccc(Cl)cc3)c(CC(=O)O)n2C1: 86
- CN1[C@@H]2CC[C@H]1CC(OC(=O)c1c[nH]c3ccccc13)C2 (stereo not given in full): 107
- CC(=O)Oc1ccccc1C(=O)O: 103
- ClC1=C(N\C2=N\CCN2)C3=NSN=C3C=C1: 127
- COc1c(C)cnc(Cn2cnc3c(Cl)nc(N)nc32)c1C: 37.9

----------
Measured cell viability, listed per entry for reference.
- Tested on: SEM cells
- Assay: cell viability relative to DMSO control; higher = less cytotoxic
- Particulars: RPMI 5 mM glucose + 10% dialyzed FBS; 48 h; 0.19 µM
Recorded endpoint: cell viability (%)

* CC(C)OC(=O)OCOP(=O)(CO[C@H](C)Cn1cnc2c(N)ncnc21)OCOC(=O)OC(C)C.O=C(O)C=CC(=O)O | 104
* CC1=C(/C=C/C(C)=C/C=C/C(C)=C/C=C/C=C(C)/C=C/C=C(C)/C=C/C2=C(C)CCCC2(C)C)C(C)(C)CCC1 | 105
* CC1(C)CC(=O)c2c(C(F)(F)F)nn(-c3ccc(C(N)=O)c(NC4CCC(O)CC4)c3)c2C1 (stereo not given) | 34.4
* C=CC(=O)Nc1cccc(Oc2nc(Nc3ccc(N4CCN(C)CC4)cc3)ncc2Cl)c1 | 111
* COC1=CC=CC=C1C2=CC=CC(=C2)C/3=C(O)/C4=CC(=C(Cl)C=C4NC3=O)C#N | 102
* CN[S+](=O)([O-])Cc1ccc2[nH]cc(CCN(C)C)c2c1 | 102
* COc1cccc2cc(-c3nc(C4CCC(C(=O)O)CC4)n4ncnc(N)c34)[nH]c12 (stereo not given) | 99.7
* COC1=CC=CC2=C1C(=NC(=N2)C3=CC=CS3)NN4C(=O)\C=C(C)/C4=O | 83.1
* C[C@]\12CC[C@H](O)CC1=C/CC3C2CC[C@@]\4(C)C3C\C=C4[N]5C=NC6=C5C=CC=C6 (stereo not given in full) | 103
* COc1c(C)cnc(Cn2cnc3c(Cl)nc(N)nc32)c1C | 78.6
* CC(C)C(C)/C=C/C(C)C1CCC2C3=CC=C4CC(O)CCC4(C)C3CCC21C (stereo not given) | 91.4
* Nc1ccccc1NC(=O)c1ccc(CNC(=O)OCc2cccnc2)cc1 | 104
* O=c1c(-c2ccc(O)cc2)coc2cc(O[C@@H]3O[C@H](CO)[C@@H](O)[C@H](O)[C@H]3O)ccc12 | 137
* C[C@H]1[C@H](NC(=O)/C(=N/OC(C)(C)C(=O)O)c2csc(N)n2)C(=O)N1[S+](=O)([O-])O | 129
* Cc1cn2c(-c3cn[nH]c3)cnc2c(Nc2ccc(C(=O)N3CCNCC3)cc2F)n1 | 102
* COc1nccc(-c2c(-c3ccc(F)cc3)ncn2C2CCNCC2)n1 | 114
* CC/1=C/C(=O)N(O)/C(=C1)C2CCCCC2 | 147
* N=C(CCSCc1csc(N=C(N)N)n1)N[S+](N)(=O)[O-] | 93.6
* COc1cc2nc(N(C)CCCNC(=O)C3CCCO3)nc(N)c2cc1OC (stereo not given) | 93.7
* [NH2][Pt]1([NH2])[O]CC(=O)[O]1 | 87.7
* C/C=C/C[C@@H](C)C(=O)[C@H]1C(=O)N[C@@H](C(C)C)C(=O)N(C)CC(=O)N(C)[C@@H](CC(C)C)C(=O)N[C@@H](C(C)C)C(=O)N(C)[C@@H](CC(C)C)C(=O)N[C@@H](C)C(=O)N[C@H](C)C(=O)N(C)[C@@H](CC(C)C)C(=O)N(C)[C@@H](CC(C)C)C(=O)N(C)[C@@H](C(C)C)C(=O)N1C | 120
* O=NN(CCCl)C(=O)NC1CCCCC1 | 92.2
* Cc1ccccc1C(C(=O)NC1CCCCC1)N(C(=O)Cn1ccnc1C)c1cccc(F)c1 (stereo not given) | 88.5
* CCc1cc(Nc2nccc(-c3c(-c4ccc(OC)c(C(=O)Nc5c(F)cccc5F)c4)nc4ccccn34)n2)c(OC)cc1N1CCC(N2CCN([S+](C)(=O)[O-])CC2)CC1 | 79.9
* NC(=O)c1cnc(N[C@@H]2CCCC[C@@H]2N)nc1Nc1cccc(-n2nccn2)c1 | 131
* Cn1c(=O)c2c(ncn2C)n(C)c1=O.O=C(O)CC(O)(CC(=O)O)C(=O)O | 124
* CC[C@H](CC#N)OC(=O)N[C@@H](C)c1cccc(NC(=O)Nc2ccc(-c3cnco3)c(OC)c2)c1 | 112
* CC1CCC(C(=O)N(c2cc(C#CC(C)(C)C)sc2C(=O)O)C2CCC(O)CC2)CC1 (stereo not given) | 90.3
* ClC1=C(N\C2=N\CCN2)C3=NSN=C3C=C1 | 122
* Cc1ccc(NC(=O)c2ccc(CN3CCN(C)CC3)cc2)cc1Nc1nc(-c2cccnc2)cs1 | 46.7

----------
- System: SEM cells
- Assay: cell viability relative to DMSO control; higher = less cytotoxic
- Particulars: RPMI 5 mM glucose + 10% FBS; 48 h; 5.12 µM
Entries annotated with measured cell viability
Recorded endpoint: cell viability (%)

• CC(C)[C@@H](N(CCCN)C(=O)C1=CC=C(C)C=C1)C/2=N/C3=CC(=CC=C3C(=O)N2CC4=CC=CC=C4)Cl = 16.8
• O=C(OC)[C@]12CC[C@@]3(C)[C@]4(C)CC[C@H]5[C@@](C)(C)C(=O)C(=C[C@]5(C)C4=CC(=O)[C@@H]3[C@@H]2C[C@](C)(C)CC1)C#N = 109
• Cc1ccc(NC(=O)c2ccc(CN3CCN(C)CC3)cc2)cc1Nc1nc(-c2cccnc2)cs1 = 23.6
• CCCCCOC(=O)NC\1=N\C(=O)N(\C=C1F)[C@@H]2O[C@H](C)[C@@H](O)[C@H]2O = 98.4
• ClC1=C(N\C2=N\CCN2)C3=NSN=C3C=C1 = 117
• Cl.Cl.Cl.O[C@@H](COc1cccc2ncccc12)CN1CCN([C@@H]2c3ccccc3[C@@H]3[C@H](c4ccccc42)C3(F)F)CC1 = 100
• COc1cc2c(cc1-c1c(C)noc1C)ncc1[nH]c(=O)n([C@H](C)c3ccccn3)c12 = 8.34
• COC1=C(N2CCNC(C)C2)C(=CC3=C1N(\C=C(C(O)=O)/C3=O)C4CC4)F (stereo not drawn) = 44.8

----------
Below, each entry is listed alongside its reported cell viability.
- Tested on: P12-Ichikawa
- Assay: cell viability relative to DMSO control; higher = less cytotoxic
- Particulars: RPMI 5 mM glucose + 10% FBS; 48 h; 0.19 µM
Recorded endpoint: cell viability (%)

* COC1CCC(CC1)N(C(=O)C2CCC(C)CC2)C3=C(SC(=C3)\C4=C\CCCC4)C(O)=O (configuration not stated) | 106
* CCC[C@H](NC(=O)/C(C#N)=C/c1cccc(Br)n1)c1ccccc1 | 116
* O=C(NOCC(O)CO)c1cc(Br)c(F)c(F)c1Nc1ccc(I)cc1F (configuration not stated) | 67.9
* Cc1nc(NC(=O)N2CCC[C@H]2C(N)=O)sc1-c1ccnc(C(C)(C)C(F)(F)F)c1 | 86.9
* Oc1ccc2c3c1O[C@H]1c4[nH]c5c(c4C[C@@]4(O)[C@@H](C2)N(CC2CC2)CC[C@]314)C[C@@]1(O)[C@H]2Cc3ccc(O)c4c3[C@@]1(CCN2CC1CC1)[C@H]5O4 | 124
* CC1(C)O[C@@H]2C[C@H]3[C@@H]4CCC5=CC(=O)C=C[C@]5(C)[C@@]4(F)[C@@H](O)C[C@]3(C)[C@]2(C(=O)CO)O1 | 70.2
* CC/C(=C(/c1ccc(O)cc1)c1ccc(OCCNC)cc1)c1ccccc1 | 122
